- measurement_target: α7 AChRs (Homo sapiens, UniProt P36544)
- Sequence (P36544 23-502): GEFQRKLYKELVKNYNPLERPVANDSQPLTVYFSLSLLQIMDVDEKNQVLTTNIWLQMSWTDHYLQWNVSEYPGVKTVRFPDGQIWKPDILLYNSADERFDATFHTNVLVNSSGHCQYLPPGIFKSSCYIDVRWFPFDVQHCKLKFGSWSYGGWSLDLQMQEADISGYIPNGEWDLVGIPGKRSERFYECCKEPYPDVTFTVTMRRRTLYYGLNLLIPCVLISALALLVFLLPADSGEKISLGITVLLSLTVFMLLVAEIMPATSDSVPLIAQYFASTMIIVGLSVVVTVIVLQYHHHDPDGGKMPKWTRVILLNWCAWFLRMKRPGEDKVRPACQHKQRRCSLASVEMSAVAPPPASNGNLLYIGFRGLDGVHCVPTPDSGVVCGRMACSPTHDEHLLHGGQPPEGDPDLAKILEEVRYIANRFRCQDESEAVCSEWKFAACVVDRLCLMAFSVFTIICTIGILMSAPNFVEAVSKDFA
- measurement_description: Acute activation, FLEXStation membrane potential dye, α7/RIC-3 cell line
- Type: cell-based
- Design: expressed in transfected cells; grown in VPA and PBA
- condition: α7
- Method: The parental cell line used for transfections was tsA201, derived from the human embryonic kidney cell line (HEK) 293 [33]. […] The cell line permanently expressing α3β4 AChRs has been described, [34]. […] Responses to nicotinic agonists were determined using a FLEXStation microplate fluorometer (Molecular Devices, Sunnyvale, CA) as described. […] Data were graphed using GraphPad Prism software. […] The EC50 and IC50 were calculated from the curves. […]
measure_name: Hill (activation)
Respond using a number only.

Looking up CC(=O)OCC[N+](C)(C)C [ACh, acetylcholine] , I see its Hill (activation) listed as 2.4

Field Hill (activation) (entry OCCCCC#Cc1cncc(OC[C@@H]2CCN2)c1 [Sazetidine-A] ) reads 1.6

The compound listed as c1cnc2cc3c(cc2n1)[C@@H]1CNC[C@H]3C1 [Varenicline, varenicline] shows Hill (activation) equal to 3.5

So, O=c1cccc2n1C[C@@H]1CNC[C@H]2C1 [Cytisine, cytisine] ? Its Hill (activation) was 4.3

Hill (activation) measured on CN1CCC[C@H]1c1cccnc1 [Nicotine, nicotine] = 1.7

----------
- measurement_target: α7 AChRs (Homo sapiens)
- measurement_description: Chronic desensitization (16 h agonist, then ACh response) and calculated smoldering activation, α7 cell line
- Assay type: cell-based
- Parameters: expressed in transfected cells; grown in VPA and PBA
- condition: α7: 10 µM ACh, overnight (16 h) agonist; read-out: Desensitization IC50
measure_name: IC50 (µM)
Express it in µM; write the number only.

Input "OCCCCC#Cc1cncc(OC[C@@H]2CCN2)c1" . Output IC50: 3.5

----------
- measurement_target: α3β4 AChRs (Homo sapiens, UniProt P30926+P32297)
- Construct: expressed in transfected cells
- Sequence (P32297 32-505): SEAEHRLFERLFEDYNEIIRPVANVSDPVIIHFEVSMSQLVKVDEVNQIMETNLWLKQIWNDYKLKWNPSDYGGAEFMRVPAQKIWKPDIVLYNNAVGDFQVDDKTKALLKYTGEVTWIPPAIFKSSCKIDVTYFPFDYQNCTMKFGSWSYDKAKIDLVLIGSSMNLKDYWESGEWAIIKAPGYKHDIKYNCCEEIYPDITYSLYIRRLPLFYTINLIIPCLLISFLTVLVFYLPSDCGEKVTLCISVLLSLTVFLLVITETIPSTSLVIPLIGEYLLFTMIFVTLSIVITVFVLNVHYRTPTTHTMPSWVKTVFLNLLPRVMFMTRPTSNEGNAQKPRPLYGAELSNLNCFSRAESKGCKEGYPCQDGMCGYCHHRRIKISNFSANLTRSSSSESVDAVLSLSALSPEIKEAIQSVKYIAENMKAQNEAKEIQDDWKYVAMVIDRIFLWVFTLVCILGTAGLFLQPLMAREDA
- Sequence (P30926 22-498): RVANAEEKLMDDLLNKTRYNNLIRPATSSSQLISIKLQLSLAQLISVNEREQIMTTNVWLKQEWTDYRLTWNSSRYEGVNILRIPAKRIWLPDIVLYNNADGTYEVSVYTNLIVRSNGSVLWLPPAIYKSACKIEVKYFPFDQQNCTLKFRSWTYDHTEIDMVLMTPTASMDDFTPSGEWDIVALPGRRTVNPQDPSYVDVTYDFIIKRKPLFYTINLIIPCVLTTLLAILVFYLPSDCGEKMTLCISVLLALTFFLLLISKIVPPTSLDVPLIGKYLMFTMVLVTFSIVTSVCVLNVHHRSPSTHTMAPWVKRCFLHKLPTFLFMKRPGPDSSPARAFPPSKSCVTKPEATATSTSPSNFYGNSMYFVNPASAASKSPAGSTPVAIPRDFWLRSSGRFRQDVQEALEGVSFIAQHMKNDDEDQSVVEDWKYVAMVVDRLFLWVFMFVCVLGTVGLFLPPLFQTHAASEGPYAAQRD
- measurement_description: Acute activation, FLEXStation membrane potential dye, α3β4 cell line
- Type: cell-based
measure_name: EC50 (µM)
Answer in µM, number only, no unit symbol.

Value of measured EC50 for the entry "O=c1cccc2n1C[C@@H]1CNC[C@H]2C1" : 7.5

----------
- measurement_target: α3β4 AChRs (Homo sapiens, UniProt P30926+P32297)
- Construct: expressed in transfected cells
- measurement_description: Chronic desensitization (16 h agonist, then ACh response) and calculated smoldering activation, α3β4 cell line
- Type: cell-based
- condition: α3β4: 1.0 mM ACh, overnight (16 h) agonist; read-out: Desensitization IC50
measure_name: IC50
Quick note: unit goes after the number.

Reported IC50 of "OCCCCC#Cc1cncc(OC[C@@H]2CCN2)c1" : 330 nM

----------
- measurement_target: α3β4 AChRs (Homo sapiens, UniProt P30926+P32297)
- Construct: expressed in transfected cells
- measurement_description: Acute activation, FLEXStation membrane potential dye, α3β4 cell line
- Format: cell-based
- condition: α3β4; read-out: Activation EC50
- Protocol: The parental cell line used for transfections was tsA201, derived from the human embryonic kidney cell line (HEK) 293 [33]. […] The cell line permanently expressing α3β4 AChRs has been described, [34]. […] Responses to nicotinic agonists were determined using a FLEXStation microplate fluorometer (Molecular Devices, Sunnyvale, CA) as described. […] Data were graphed using GraphPad Prism software. […] The EC50 and IC50 were calculated from the curves. […]
measure_name: pEC50
Keep it numeric: pEC50 is minus log10 of the concentration in mol/L.

Recorded pEC50 for "OCCCCC#Cc1cncc(OC[C@@H]2CCN2)c1" on α3β4 AChRs (Homo sapiens, UniProt P30926+P32297) was 6.77

----------
- measurement_target: human α4β2 AChRs (Homo sapiens, UniProt P17787+P43681)
- Construct: expressed in transfected cells
- Sequence (P43681 29-627 limits assumed): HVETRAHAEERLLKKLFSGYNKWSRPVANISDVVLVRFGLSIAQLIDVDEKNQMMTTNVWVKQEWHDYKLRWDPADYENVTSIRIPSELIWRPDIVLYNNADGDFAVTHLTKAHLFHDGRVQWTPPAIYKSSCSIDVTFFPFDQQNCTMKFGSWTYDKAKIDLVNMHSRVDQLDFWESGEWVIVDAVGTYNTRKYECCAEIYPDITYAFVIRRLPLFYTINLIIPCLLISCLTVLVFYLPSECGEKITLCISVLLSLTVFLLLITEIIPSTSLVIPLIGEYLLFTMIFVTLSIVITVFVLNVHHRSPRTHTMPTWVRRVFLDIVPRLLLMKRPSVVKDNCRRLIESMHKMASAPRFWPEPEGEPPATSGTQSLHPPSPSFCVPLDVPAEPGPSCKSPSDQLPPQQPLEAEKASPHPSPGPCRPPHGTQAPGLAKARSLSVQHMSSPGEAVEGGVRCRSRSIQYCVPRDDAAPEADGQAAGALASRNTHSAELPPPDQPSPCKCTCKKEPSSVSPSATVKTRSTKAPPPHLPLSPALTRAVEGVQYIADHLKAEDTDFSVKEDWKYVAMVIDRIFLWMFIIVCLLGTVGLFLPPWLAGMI
- Sequence (P17787 26-502): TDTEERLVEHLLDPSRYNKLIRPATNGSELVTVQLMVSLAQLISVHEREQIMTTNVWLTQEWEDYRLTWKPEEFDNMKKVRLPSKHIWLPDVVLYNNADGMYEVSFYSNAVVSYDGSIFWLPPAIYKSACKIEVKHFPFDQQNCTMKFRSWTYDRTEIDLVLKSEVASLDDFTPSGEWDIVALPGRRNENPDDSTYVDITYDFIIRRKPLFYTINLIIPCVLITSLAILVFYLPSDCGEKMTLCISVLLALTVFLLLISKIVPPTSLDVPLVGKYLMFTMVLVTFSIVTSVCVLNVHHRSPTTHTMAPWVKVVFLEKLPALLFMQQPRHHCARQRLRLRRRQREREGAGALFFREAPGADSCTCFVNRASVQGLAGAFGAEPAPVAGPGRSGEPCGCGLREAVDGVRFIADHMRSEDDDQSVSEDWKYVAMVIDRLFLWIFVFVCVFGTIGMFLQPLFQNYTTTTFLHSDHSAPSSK
- measurement_description: Chronic desensitization (16 h agonist, then ACh response) and calculated smoldering activation, α4β2 cell line
- Assay type: cell-based
- condition: α4β2: 3 µM ACh, overnight (16 h) agonist; first (more sensitive) component; read-out: Desensitization IC50
measure_name: IC50 (nM)
The reply should be a number in nM, with the unit left off.

Recorded IC50 (compound OCCCCC#Cc1cncc(OC[C@@H]2CCN2)c1 [Sazetidine-A] ): 0.48

----------
- measurement_target: UniProtKB P36544
- measurement_description: Chronic desensitization (16 h agonist, then ACh response) and calculated smoldering activation, α7 cell line
- Format: cell-based
- Design: expressed in transfected cells; grown in VPA and PBA
- condition: α7: 10 µM ACh
Please provide measured Intercept of Activation and Desensitization Curves for the entries that follow.
Give the value, in units of µM, as a plain number.

Kindly note the recorded Intercept of Activation and Desensitization Curves for O=c1cccc2n1C[C@@H]1CNC[C@H]2C1 [Cytisine, cytisine] , which is 2.1

The compound listed as OCCCCC#Cc1cncc(OC[C@@H]2CCN2)c1 [Sazetidine-A] has a reported Intercept of Activation and Desensitization Curves of 1.5

Intercept of Activation and Desensitization Curves measured on CN1CCC[C@H]1c1cccnc1 [Nicotine, nicotine] = 1.7

Please fill in: Intercept of Activation and Desensitization Curves reported for c1cnc2cc3c(cc2n1)[C@@H]1CNC[C@H]3C1 [Varenicline, varenicline] = 0.4

----------
Field: Intercept of Activation and Desensitization Curves. Provide a value for each of the molecules that follow.
- measurement_target: human α4β2 AChRs (Homo sapiens, UniProt P17787+P43681)
- Construct: expressed in transfected cells
- measurement_description: Chronic desensitization (16 h agonist, then ACh response) and calculated smoldering activation, α4β2 cell line
- Format: cell-based
- condition: α4β2: 3 µM ACh ((α4β2)2β2 stoichiometry); centre of smoldering activation
Express your answer in µM, writing the number without its unit.

// Intercept of Activation and Desensitization Curves value for "OCCCCC#Cc1cncc(OC[C@@H]2CCN2)c1" : 0.0015

Memo: "c1cnc2cc3c(cc2n1)[C@@H]1CNC[C@H]3C1" , reported Intercept of Activation and Desensitization Curves: 0.16

Recorded Intercept of Activation and Desensitization Curves (molecule "O=c1cccc2n1C[C@@H]1CNC[C@H]2C1" ): 0.45

So, "CN1CCC[C@H]1c1cccnc1" ? Its Intercept of Activation and Desensitization Curves was 0.13

----------
- measurement_target: human α4β2 AChRs (Homo sapiens, UniProt P17787+P43681)
- Construct: expressed in transfected cells
- measurement_description: Chronic desensitization (16 h agonist, then ACh response) and calculated smoldering activation, α4β2 cell line
- Format: cell-based
- condition: α4β2: 100 µM ACh, overnight (16 h) agonist; first (more sensitive) component; read-out: Desensitization IC50
- Procedure: To measure desensitization, plates were prepared as for agonist assays. Sixteen hours prior to the assay, serial dilutions of agonists, prepared in regular growth medium, were added to the plates. One hour before the assay, the membrane potential-sensitive fluorescent dye with 0.5 µM atropine was added to the wells. […] Data were graphed using GraphPad Prism software. […] The EC50 and IC50 were calculated from the curves. […]
measure_name: pIC50
Please note pIC50 is a logarithmic value: minus log10 of concentration in mol/L. Answer with that number alone.

// "OCCCCC#Cc1cncc(OC[C@@H]2CCN2)c1" : pIC50 value = 9.59

----------
- measurement_target: human α4β2 AChRs (Homo sapiens, UniProt P17787+P43681)
- Construct: expressed in transfected cells
- measurement_description: Chronic desensitization (16 h agonist, then ACh response) and calculated smoldering activation, α4β2 cell line
- Type: cell-based
- condition: α4β2: 100 µM ACh; first component
measure_name: Hill (desensitization)
Write the number on its own, no unit after it.

Hill (desensitization) in this record for "O=c1cccc2n1C[C@@H]1CNC[C@H]2C1" : −1.2

The compound listed as "OCCCCC#Cc1cncc(OC[C@@H]2CCN2)c1" shows Hill (desensitization) equal to −0.6

"CN1CCC[C@H]1c1cccnc1" has a reported Hill (desensitization) of −1.2

Recorded result, "c1cnc2cc3c(cc2n1)[C@@H]1CNC[C@H]3C1" , Hill (desensitization): −1.0

----------
- measurement_target: human α4β2 AChRs (Homo sapiens, UniProt P17787+P43681)
- Construct: expressed in transfected cells
- measurement_description: Chronic desensitization (16 h agonist, then ACh response) and calculated smoldering activation, α4β2 cell line
- Assay type: cell-based
- condition: Desensitization IC50, α4β2: 100 µM ACh, overnight (16 h) agonist; first (more sensitive) component
measure_name: pIC50
# log scale: pIC50 equals minus log10 of the concentration in mol/L

The recorded pIC50 for entry O=c1cccc2n1C[C@@H]1CNC[C@H]2C1 [Cytisine, cytisine] equals 8.52

----------
- measurement_target: α7 AChRs (Homo sapiens)
- measurement_description: Chronic desensitization (16 h agonist, then ACh response) and calculated smoldering activation, α7 cell line
- Format: cell-based
- Parameters: expressed in transfected cells; grown in VPA and PBA
- condition: α7: 10 µM ACh
measure_name: Hill (desensitization)

So, c1cnc2cc3c(cc2n1)[C@@H]1CNC[C@H]3C1 [Varenicline, varenicline] ? Its Hill (desensitization) was −2.6

Entry under test: O=c1cccc2n1C[C@@H]1CNC[C@H]2C1 [Cytisine, cytisine] . Its Hill (desensitization) was −1.4

Quick note, Hill (desensitization) for CN1CCC[C@H]1c1cccnc1 [Nicotine, nicotine] landed at −3.2

Notebook: OCCCCC#Cc1cncc(OC[C@@H]2CCN2)c1 [Sazetidine-A] , Hill (desensitization) read as −2.9
